- protocol conditions: 298.15 K; 101.33 kPa; Liquid; Vibrating tube method
outcome measure: mass density (kg/m3)
Answer in kg/m3, number only, no unit symbol.

Reference set, count: 4
CC[n+]1cccc(C)c1.O=S(=O)([N-]S(=O)(=O)C(F)(F)F)C(F)(F)F : 1488.5
CCO : 785.2
CCCCCC : 655.2
CCCCCCC : 679.57

Continue with the compound presented below.
Query :: Given CCC[n+]1cccc(C)c1.O=S(=O)([N-]S(=O)(=O)C(F)(F)F)C(F)(F)F , respond with its mass density.
Result :: 1447.94

###

- test: refractive index (Na D-line) (dimensionless)
- protocol conditions: 298.15 K; 101.33 kPa; Liquid; Abbe refractometer
outcome measure: refractive index
// print number alone

CC[n+]1cccc(C)c1.O=S(=O)([N-]S(=O)(=O)C(F)(F)F)C(F)(F)F : 1.44376
CCCCCCC : 1.38529
CCC[n+]1cccc(C)c1.O=S(=O)([N-]S(=O)(=O)C(F)(F)F)C(F)(F)F : 1.44485

Query :: Given CCCCCC , respond with its refractive index.
Result :: 1.37241

Query :: Given CCO , respond with its refractive index.
Result :: 1.35936
